# melting point annotations

molecule: CS(=O)(=O)N[C@@H]1CCCC[C@H]1Nc1nc(Nc2cc(F)cc3c2OCCNC3=O)ncc1Cl
melting point: 177 to 181 °C
//
molecule: CCON=C(C)C(C)=NOc1ncccc1C(=NOC)C(=O)NC
melting point: 110 °C
//
molecule: CCOC(=O)/C=C/c1ccc(OCCOC)cc1OCc1nc(-c2ccccc2)oc1C
melting point: 109 to 110 °C
//
molecule: Cc1cccc(C(=O)C=CN(C)C)n1
melting point: 97 to 98 °C
//
molecule: C#CC1(O)CCC2C3CCC4=CCCCC4C3C(=CF)CC21C (stereo unspecified)
melting point: 103 to 104 °C

Prompt line: Bench note: what melting point did `O=[N+]([O-])c1ccc2c3c([nH]c2c1)CCCCCC3` show?
Response line: 119 to 120 °C

Prompt line: Bench note: what melting point did `COc1ccc(Sc2nc(-c3ccccc3)cnc2N)cc1` show?
Response line: 116 to 118 °C

Prompt line: Bench note: what melting point did O=C1CCC(c2ccc(CCN3CCN(c4ncccn4)CC3)cc2)N1 (stereo unspecified) show?
Response line: 182 to 183 °C

Prompt line: Bench note: what melting point did `CCCCCCCCc1ncc(-c2ccc(O)cc2)cn1` show?
Response line: 94 to 96 °C

Prompt line: Bench note: what melting point did COc1cc(C)c(C(O)c2c(O)ccc(Cl)c2C)c(OC)c1OC (stereo unspecified) show?
Response line: 140 to 142 °C

Prompt line: Bench note: what melting point did `CC(C)c1cc(-c2ccccn2)c(-c2ccc(F)cc2)n1CCC=O` show?
Response line: 120 to 122 °C

---

# melting point annotations

Sample records with melting point:
molecule: CN(C)c1ccc(C(=O)OC2CCN(Cc3ccccc3)CC2)cc1
melting point: 103 °C
//
molecule: COC(=O)CCCc1ccc(NC(=O)[C@@H](Cc2ccc(OCc3ccccc3)cn2)NC(=O)OC(C)(C)C)cc1
melting point: 166 to 167 °C
//
molecule: CS(=O)c1cc2ccccc2[nH]1 (stereo not given)
melting point: 140 to 144 °C
//
molecule: Oc1cc2c(cc1CCCCc1ccccc1)OC(CCc1ccccc1)C2 (stereo not given)
melting point: 50 to 53 °C

Prompt line: Bench note: what melting point did `CCCCNC(=NC#N)Nc1cccnc1` show?
Response line: 96 to 97 °C

Prompt line: Bench note: what melting point did `CC(=O)NCC(=O)c1cc(OC(C)=O)c(OC(C)=O)c([N+](=O)[O-])c1` show?
Response line: 121 to 124 °C

Prompt line: Bench note: what melting point did `CSc1ccc(Oc2ccc(C#N)cc2)cc1` show?
Response line: 65 to 66 °C

Prompt line: Bench note: what melting point did CN(C)C1CCC(Nc2ncc3ncnc(Nc4ccc(F)c(Cl)c4)c3n2)CC1 (stereo not given) show?
Response line: 178 to 180 °C

Prompt line: Bench note: what melting point did `Cc1cc([N+](=O)[O-])c(O)c([N+](=O)[O-])c1C` show?
Response line: 120 to 122 °C

Prompt line: Bench note: what melting point did `Fc1ccc(Cn2c(NC3CCN(CCNc4ncc[nH]4)CC3)nc3ccccc32)cc1` show?
Response line: 226 °C

---

# melting point annotations

Sample records with melting point:
compound: O=C(NS(=O)(=O)c1c(F)cccc1F)N1CCC=N1
melting point: 183 °C
//
compound: NS(=O)(=O)c1ccccc1S(=O)(=O)NC1CC1
melting point: 202 to 203 °C
//
compound: CN(Cc1ccc(NC(=O)C2=Cc3cc(-c4ccc(C#N)cc4)ccc3S(=O)(=O)CC2)cc1)C1CCOCC1
melting point: 233 to 236 °C
//
compound: COc1ccc(C(=O)c2ccc(Cl)nc2)cc1OC
melting point: 158 to 159 °C
//
compound: Clc1ccc(CCC(Cn2ccnc2)Sc2ccccc2Cl)s1 (stereo unspecified)
melting point: 121 to 122 °C

Prompt line: Bench note: what melting point did O=C1c2cccnc2N(c2ccccc2)C(=O)C12CCCCO2 (stereo unspecified) show?
Response line: 213 to 215 °C

Prompt line: Bench note: what melting point did C=CC(=O)NCC(C(C)=O)C(=O)c1ccccc1 (stereo unspecified) show?
Response line: 125 to 126 °C

Prompt line: Bench note: what melting point did NC(CO)c1ccc(OC(F)F)cc1 (stereo unspecified) show?
Response line: 54 to 57 °C

Prompt line: Bench note: what melting point did CC(=O)OC1CSC(Oc2cc(Br)cnc2Cl)C(OC(C)=O)C1OC(C)=O (stereo unspecified) show?
Response line: 143 to 147 °C

Prompt line: Bench note: what melting point did `Cc1cc(=O)c2[nH]nc(-c3ccc(Cl)cc3)c2[nH]1` show?
Response line: 324 to 327 °C

Prompt line: Bench note: what melting point did `O=Cc1ccc(CCBr)cc1` show?
Response line: 49 to 52 °C

---

# melting point annotations

compound: CCCCCCCN(CCCCCSc1nc(-c2ccccc2)c(-c2ccccc2)[nH]1)c1nc2ccccc2o1
obsValue: 58 to 60 °C
//
compound: Cc1c(Sc2ccc(Cl)cc2)nn(-c2ccc(O)cc2)c(=O)c1C#N
obsValue: 261 to 263 °C
//
compound: C=C(Nc1nc(-c2ccccc2)c(-c2nc3ccccc3c(=O)n2-c2ccccc2)s1)c1ccco1
obsValue: 271 to 272 °C
//
compound: COc1cc(Nc2nccc(Nc3cccc(OC(F)(F)F)c3)n2)cc(OC)c1OC
obsValue: 154 to 156 °C
//
compound: O=C(O)c1cn(-c2ccnc3ccccc23)cc1C1CC1
obsValue: 195 °C
//
compound: O=C(Nc1ccc(S(=O)(=O)C(F)(F)F)cc1Cl)c1cc(-c2ccc(F)cc2F)cc(C23CC4CC(CC(C4)C2)C3)c1O
obsValue: 177 to 178 °C

Prompt line: Bench note: what melting point did `COc1ccc(Cn2c(=O)c(C#N)c(Cl)c3cc(F)cnc32)cc1` show?
Response line: 195 °C

Prompt line: Bench note: what melting point did COC1(C(=O)Cc2ccc(-c3ccc(O)cc3)cc2)C=CC(Cl)=CC1N (centres undefined) show?
Response line: 165 to 168 °C

Prompt line: Bench note: what melting point did `CC(C)C(=O)NC(=O)N1C(=O)Cc2cc(Cl)ccc21` show?
Response line: 139 to 141 °C

---

measuredMetric: melting point

Sample records with melting point:
structureNotation: Clc1ccccc1-c1nc(Cl)c2ccccc2n1
melting point: 127 to 129 °C

structureNotation: O=C(O)Cc1c(C(=O)O)c2cc(Oc3ccc(Cl)c(Cl)c3)ccc2n1-c1ccc(OCC(F)(F)F)cc1
melting point: 205 to 210 °C

structureNotation: CCOC(=O)N1C[C@H](O)C[C@H]1CCOc1ccc(Br)cc1CCc1ccccc1
melting point: 63 to 66 °C

Prompt line: Bench note: what melting point did `CCOC(=O)c1nc(-c2nccs2)cs1` show?
Response line: 143 to 145 °C

Prompt line: Bench note: what melting point did `CC(=NNc1ccc(-c2n[nH]c(=O)cc2C)cc1)c1ccc(O)cc1O` show?
Response line: 299 to 303 °C

---

# melting point annotations

Sample records with melting point:
molecule: CCCn1ccc(-c2ccc(C(=O)N3Cc4cccn4Cc4ccccc43)cc2)n1
obsValue: 159 to 161 °C
//
molecule: COc1cc2c(c(N)c1OC)C(=O)C(=Cc1cc(C)c(O)c(C)c1)C2
obsValue: 238 to 240 °C
//
molecule: CCOc1nn(-c2ccc(C(F)(F)F)cn2)cc1CCCOc1cc(CC(=O)O)cc(OC)c1
obsValue: 125 to 126 °C
//
molecule: N#CCCCN1C(=O)C(O)(c2cccc(Cl)c2)c2ccccc21 (stereo not given)
obsValue: 124 to 126 °C

Prompt line: Bench note: what melting point did `COc1ccc(C/N=C/C(/C=N/Cc2ccc(OC)cc2)[N+](=O)[O-])cc1` show?
Response line: 132 °C

Prompt line: Bench note: what melting point did `NC(=S)NN=C(CCCCl)c1ccc(O)cc1` show?
Response line: 126 to 129 °C

---

# melting point annotations

Sample records with melting point:
molecule: O=C(NN=Cc1ccc([N+](=O)[O-])o1)c1ncn2ccccc12
melting point: 300 °C

molecule: O=C(O)CCCN1CCc2ccc(S(=O)(=O)Nc3ccc(Cl)cc3)cc2C1
melting point: 210 °C

molecule: CC[C@@H](CNc1ccc(C)cc1C)NS(=O)(=O)c1c(N)cc(Cl)cc1Cl
melting point: 151 °C

Prompt line: Bench note: what melting point did `O=S(=O)(NC(CO)CO)c1ccc(Br)s1` show?
Response line: 80 °C

Prompt line: Bench note: what melting point did `O=c1c2sccc2nc(CNc2ccccc2F)n1-c1ccccc1Cl` show?
Response line: 175 to 176 °C

Prompt line: Bench note: what melting point did `N#Cc1nn(-c2c(Cl)cc(C(F)(F)F)cc2Cl)c(N)c1-c1cc(Br)no1` show?
Response line: 227 °C

Prompt line: Bench note: what melting point did COC(=O)C(c1cc2c(cc1Cl)OCO2)c1c[nH]c2cc(Br)ccc12 (stereo not given) show?
Response line: 172 to 174 °C

Prompt line: Bench note: what melting point did COC(=O)C1=C(C)NC(C)=C(C(=O)OCCN2CCN(C(c3ccc(F)cc3)c3ccc(F)cc3)CC2)C1c1ccccc1[N+](=O)[O-] (stereo not given) show?
Response line: 90 to 93 °C

Prompt line: Bench note: what melting point did `CC(=O)Nc1nc2cc3[nH]c(-c4ccncc4)nc3cc2[nH]1` show?
Response line: > 330 °C

Prompt line: Bench note: what melting point did `CSc1nccn1N=Cc1ccccc1` show?
Response line: 95 to 97 °C

Prompt line: Bench note: what melting point did `COc1cc(C#N)ccc1-c1nc2cc(Cl)c(Cl)cc2[nH]1` show?
Response line: > 250 °C

Prompt line: Bench note: what melting point did `Cc1c2c(nc3ccccc13)CCN(C(=O)C(F)(F)F)CC2` show?
Response line: 147 °C

Prompt line: Bench note: what melting point did `O=c1n(CCCN2CCC(n3c(=O)[nH]c4ccccc43)CC2)nc2n1-c1ccccc1OC2` show?
Response line: 176 to 178 °C

Prompt line: Bench note: what melting point did `CCCCN(CCCC)c1ccc(C=Cc2ccc(C(C#N)=c3ccc(=C(C#N)C#N)cc3)s2)c(OC)c1` show?
Response line: 211 to 214 °C

Prompt line: Bench note: what melting point did `O=C(NCCCN1CCCCC1)c1cccc(Nc2ncnc3[nH]cc(C(=O)c4ccccc4)c23)c1` show?
Response line: > 300 °C
